Cited source for all entries: patent US4826845A

experimental-target: potential-mediated calcium channel (Rattus norvegicus, UniProt P22002)
Construct: from tissue; host or cells: isolated rat portal vein
Sequence (P22002 whole entry): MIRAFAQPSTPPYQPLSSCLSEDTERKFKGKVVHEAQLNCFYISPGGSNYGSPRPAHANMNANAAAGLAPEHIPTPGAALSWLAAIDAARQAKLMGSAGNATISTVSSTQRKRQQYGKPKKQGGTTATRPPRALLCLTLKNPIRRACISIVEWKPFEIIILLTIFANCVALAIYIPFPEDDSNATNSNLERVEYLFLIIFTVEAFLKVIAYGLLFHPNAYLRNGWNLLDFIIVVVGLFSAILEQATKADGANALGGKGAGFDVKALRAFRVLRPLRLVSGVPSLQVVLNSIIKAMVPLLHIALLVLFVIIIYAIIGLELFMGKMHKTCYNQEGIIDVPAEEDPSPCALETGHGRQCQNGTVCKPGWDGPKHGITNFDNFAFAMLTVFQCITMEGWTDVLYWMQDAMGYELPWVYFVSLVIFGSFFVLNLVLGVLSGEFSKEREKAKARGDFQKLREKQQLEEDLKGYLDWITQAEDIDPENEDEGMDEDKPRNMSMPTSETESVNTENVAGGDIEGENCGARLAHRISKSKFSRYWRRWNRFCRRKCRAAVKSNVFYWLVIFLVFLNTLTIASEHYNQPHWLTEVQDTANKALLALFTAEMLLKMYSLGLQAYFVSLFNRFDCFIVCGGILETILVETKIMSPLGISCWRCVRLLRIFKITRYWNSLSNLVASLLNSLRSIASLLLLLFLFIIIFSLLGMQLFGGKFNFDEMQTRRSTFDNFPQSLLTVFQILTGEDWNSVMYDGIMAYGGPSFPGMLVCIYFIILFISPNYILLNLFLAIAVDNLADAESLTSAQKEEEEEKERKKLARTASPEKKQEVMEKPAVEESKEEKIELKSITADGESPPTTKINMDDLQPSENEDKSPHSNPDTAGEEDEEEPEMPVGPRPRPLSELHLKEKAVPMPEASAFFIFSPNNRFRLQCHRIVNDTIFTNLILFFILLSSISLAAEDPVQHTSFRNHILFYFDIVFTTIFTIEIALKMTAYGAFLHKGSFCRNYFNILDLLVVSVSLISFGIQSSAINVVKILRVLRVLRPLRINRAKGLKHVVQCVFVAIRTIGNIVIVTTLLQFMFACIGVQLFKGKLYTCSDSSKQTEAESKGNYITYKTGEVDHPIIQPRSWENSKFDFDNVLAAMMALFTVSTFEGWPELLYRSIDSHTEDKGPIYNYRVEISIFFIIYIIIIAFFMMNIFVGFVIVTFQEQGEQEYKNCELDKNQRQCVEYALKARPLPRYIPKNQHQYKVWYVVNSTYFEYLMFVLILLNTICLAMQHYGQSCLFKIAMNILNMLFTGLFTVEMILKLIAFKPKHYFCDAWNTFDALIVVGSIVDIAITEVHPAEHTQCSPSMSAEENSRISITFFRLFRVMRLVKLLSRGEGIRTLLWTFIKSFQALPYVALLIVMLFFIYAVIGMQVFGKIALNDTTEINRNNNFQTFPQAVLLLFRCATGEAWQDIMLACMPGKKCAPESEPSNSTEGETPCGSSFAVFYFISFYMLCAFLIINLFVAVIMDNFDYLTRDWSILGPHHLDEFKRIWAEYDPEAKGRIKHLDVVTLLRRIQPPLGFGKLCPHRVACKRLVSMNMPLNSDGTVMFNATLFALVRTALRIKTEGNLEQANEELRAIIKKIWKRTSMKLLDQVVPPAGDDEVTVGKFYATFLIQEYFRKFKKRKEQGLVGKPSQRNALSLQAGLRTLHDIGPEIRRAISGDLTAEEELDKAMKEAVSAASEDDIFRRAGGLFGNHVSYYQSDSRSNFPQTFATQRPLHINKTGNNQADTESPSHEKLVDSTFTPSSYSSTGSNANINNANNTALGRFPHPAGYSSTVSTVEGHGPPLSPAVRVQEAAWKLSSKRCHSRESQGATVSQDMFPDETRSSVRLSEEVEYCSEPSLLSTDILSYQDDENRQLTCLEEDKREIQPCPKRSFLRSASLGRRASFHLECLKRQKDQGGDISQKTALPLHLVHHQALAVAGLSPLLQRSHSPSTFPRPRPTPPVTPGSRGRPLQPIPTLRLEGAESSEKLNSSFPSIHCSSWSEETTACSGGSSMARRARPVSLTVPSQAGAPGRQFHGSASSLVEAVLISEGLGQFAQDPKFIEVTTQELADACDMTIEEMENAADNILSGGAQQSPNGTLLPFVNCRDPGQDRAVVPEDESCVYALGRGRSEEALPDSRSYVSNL
Sequence (P54290 25-944 partner limits assumed): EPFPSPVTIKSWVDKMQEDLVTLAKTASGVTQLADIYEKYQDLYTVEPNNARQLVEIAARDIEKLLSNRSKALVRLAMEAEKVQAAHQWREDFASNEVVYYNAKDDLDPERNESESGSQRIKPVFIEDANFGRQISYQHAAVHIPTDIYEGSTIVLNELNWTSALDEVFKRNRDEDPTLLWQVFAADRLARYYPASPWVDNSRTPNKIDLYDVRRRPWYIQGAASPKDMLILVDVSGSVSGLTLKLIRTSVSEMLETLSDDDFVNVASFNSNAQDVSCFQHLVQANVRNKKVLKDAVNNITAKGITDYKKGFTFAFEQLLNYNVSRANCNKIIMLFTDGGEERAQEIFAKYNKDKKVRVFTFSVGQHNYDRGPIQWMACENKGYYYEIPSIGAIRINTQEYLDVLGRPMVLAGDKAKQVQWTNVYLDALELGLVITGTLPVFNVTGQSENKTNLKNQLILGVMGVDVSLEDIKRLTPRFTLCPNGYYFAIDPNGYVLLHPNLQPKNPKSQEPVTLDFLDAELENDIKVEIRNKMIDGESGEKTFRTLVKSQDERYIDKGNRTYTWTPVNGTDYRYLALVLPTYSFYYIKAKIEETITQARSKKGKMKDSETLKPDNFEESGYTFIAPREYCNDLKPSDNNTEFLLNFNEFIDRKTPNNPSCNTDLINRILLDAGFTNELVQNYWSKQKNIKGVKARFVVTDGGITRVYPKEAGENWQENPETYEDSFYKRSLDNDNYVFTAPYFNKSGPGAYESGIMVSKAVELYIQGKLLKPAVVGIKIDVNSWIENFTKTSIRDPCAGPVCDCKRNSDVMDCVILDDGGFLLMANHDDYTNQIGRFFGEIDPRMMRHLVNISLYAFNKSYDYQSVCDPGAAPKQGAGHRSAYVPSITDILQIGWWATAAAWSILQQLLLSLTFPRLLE
Sequence (P54290 945-1091 partner limits assumed): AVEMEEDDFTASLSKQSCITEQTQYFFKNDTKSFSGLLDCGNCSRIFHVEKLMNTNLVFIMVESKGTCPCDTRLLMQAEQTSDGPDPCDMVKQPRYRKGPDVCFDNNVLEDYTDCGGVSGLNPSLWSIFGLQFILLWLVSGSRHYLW
assay-explanation: Calcium-antagonism on isolated portal vein: potential-mediated calcium channel
Format: cell-based
experimental-parameters: rat portal vein, 80 millimoles KCl, 37° C.; read-out: Inhibition of the calcium channel, potential-mediated, IC50
pIC50: −log10 of the molar value. Where a name gives a salt, the structure may show the parent alone.
endpoint-label: pIC50

O=c1cccnn1CCCNCC1COc2ccccc2O1 (stereo not shown) [Example 3 (or 12), hydrochloride] | 6.30

(P) O=c1ccc(Cl)nn1CCCNCCOc1ccccc1
(Q) O=c1ccc(Cl)nn1CCCNCC1COc2ccccc2O1 (stereo not shown) [Example 2, hydrochloride]
(R) O=c1cccnn1CCCNCCOc1ccccc1
Q: Form: Sort by [pIC50] Order [ ascending ] Reply with the labels, ordered as the question asks.
Result: R, Q, P
(R: 4.30, Q: 5.00, P: 6.70)

----------
Listed here are compounds together with their documented Mean arterial pressure decrease.
System: anaesthetized cats
assay-explanation: Measurement of the hypotensive effect on anaesthetized cats (i.v. screening)
Type: in vivo, cat
experimental-parameters: anaesthetized cats, 5.0 mg/kg i.v.
Experimental: A tube was introduced into the trachea of cats anaesthetized by the intraperitoneal (i.p.) administration of 35 mg/kg of sodium pentobarbital whereby the spontaneous breathing was supported. On the one side of the animals, the femoral artery and vein were exposed and a polyethylene cannula was introduced in both vessels each. […] The mean arterial blood pressure was measured by connecting the arterial cannula with a Statham P 23 Db pressure transducer and electromanometer. […]
Structures can show the parent of a compound that is named as a salt.
I only need the number, in Hgmm, no unit after it.

Some compounds with recorded Mean arterial pressure decrease:
O=c1cccnn1CCNCCOc1ccccc1 | -60
O=c1cccnn1CCCNCCOc1ccccc1F | -60

Note to self: Mean arterial pressure decrease of O=c1cccnn1CCCNCC1COc2ccccc2O1 (centres unmarked) [Example 3 (or 12), hydrochloride] with anaesthetized cats was -95

Note to self: Mean arterial pressure decrease of Cc1cc(C)n(-c2ccc(=O)n(CCNCCOc3ccccc3)n2)n1 with anaesthetized cats was -65

Note to self: Mean arterial pressure decrease of O=c1cccnn1CCCNCCOc1ccccc1 with anaesthetized cats was -100

----------
System: anaesthetized cats
assay-explanation: Measurement of the hypotensive effect on anaesthetized cats (i.v. screening)
Format: in vivo, cat
experimental-parameters: anaesthetized cats, 5.0 mg/kg i.v.
Description: A tube was introduced into the trachea of cats anaesthetized by the intraperitoneal (i.p.) administration of 35 mg/kg of sodium pentobarbital whereby the spontaneous breathing was supported. On the one side of the animals, the femoral artery and vein were exposed and a polyethylene cannula was introduced in both vessels each. […] The mean arterial blood pressure was measured by connecting the arterial cannula with a Statham P 23 Db pressure transducer and electromanometer. […]
endpoint-label: Mean arterial pressure decrease (Hgmm)
I only need the number, in Hgmm, no unit after it.

Some compounds with recorded Mean arterial pressure decrease:
CCOC(=O)N1CCN(c2ccc(=O)n(CCNCCOc3ccccc3)n2)CC1 | -35
O=c1cccnn1CCCNCCCOc1ccccc1 | -55
O=c1ccc(Cl)nn1CCCNCCOc1ccccc1 | -70
O=c1ccc(Cl)nn1CCCNCCOc1ccccc1Cl | -80
O=c1cccnn1CCNCC1COc2ccccc2O1 (centres unmarked) | -30
O=c1ccc(N2CCOCC2)nn1CCNCCOc1ccccc1 | -50

# Mean arterial pressure decrease (compound: O=c1ccc(Cl)nn1CCCNCCSc1ccccc1 ) is -35

# Mean arterial pressure decrease (compound: O=c1ccc(-n2cccc2)nn1CCCNCCOc1ccccc1 ) is -35

----------
assay-explanation: Acute toxicity in mice
experimental-parameters: mouse, in vivo, po, male, p.o., read-out: LD50 p.o.
Counter-ions that a name gives are not always drawn.
endpoint-label: LD50 at 336 h (mg/kg)
I only need the number, in mg/kg, no unit after it.

# LD50 at 336 h (compound: O=c1cccnn1CCCNCC1COc2ccccc2O1 (stereo not shown) [Example 3 (or 12), hydrochloride] ) is 300

----------
assay-explanation: Acute toxicity in mice
experimental-parameters: mouse, in vivo, ip, female, i.p., read-out: LD50 i.p.
Structures can show the parent of a compound that is named as a salt.
endpoint-label: LD50 at 336 h (mg/kg)
I only need the number, in mg/kg, no unit after it.

# LD50 at 336 h (molecule: O=c1cccnn1CCCNCC1COc2ccccc2O1 (stereo not shown) [Example 3 (or 12), hydrochloride] ) is 160

----------
assay-explanation: Acute toxicity in rats
experimental-parameters: rat, in vivo, po, female, p.o., read-out: LD50 p.o.
Counter-ions that a name gives are not always drawn.
endpoint-label: LD50 at 336 h (mg/kg)
I only need the number, in mg/kg, no unit after it.

# LD50 at 336 h (compound: O=c1cccnn1CCCNCC1COc2ccccc2O1 (stereo not shown) [Example 3 (or 12), hydrochloride] ) is 400

----------
assay-explanation: Acute toxicity in rats
experimental-parameters: rat, in vivo, ip, male, i.p., read-out: LD50 i.p.
Where a name gives a salt, the structure may show the parent alone.
endpoint-label: LD50 at 336 h (mg/kg)
I only need the number, in mg/kg, no unit after it.

# LD50 at 336 h (molecule: O=c1cccnn1CCCNCC1COc2ccccc2O1 (stereo not shown) [Example 3 (or 12), hydrochloride] ) is 116
